Would you kindly list MIC for each of these compounds?
Test system: Enterococcus
Assay info: Antibacterial activity against vancomycin-resistant Enterococcus by microbroth dilution assay
Type: functional

Record CC(C)C[C@H](NC(=O)/C=C/CCCCCCCCCC=C(Br)Br)C(=O)O , field MIC: 3.7 µg/mL

MIC reported for this compound O=C(O)CNC(=O)/C=C/CCCCCCCCCC=C(Br)Br : 12 µg/mL

Value of MIC reported for the compound O=C(/C=C/CCCCCCCCCC=C(Br)Br)N[C@@H](Cc1ccccc1)C(=O)O is 2.9 µg/mL

Please fill in: MIC reported for O=C(O)[C@@H]1CCCN1C(=O)/C=C/CCCCCCCCCC=C(Br)Br = 12 µg/mL

Where these numbers come from: ChEMBL document CHEMBL1177809
